Recorded measurements of viability, one per entry
- experiment: dose response, cytotoxicity control for M. tuberculosis inhibitor project, purified and synthesized compounds (AID 504335)
- condition_parameters: mammalian cell cytotoxicity, viability; at 100 µM (top of the series)
Entry rule: numbers only, all in %.

                                   molecule  measure_name  unit  recorded_result
0  CCOC(=O)COn1c2c(c3c4no[n+]([O-])c4ccc31)CCCC2     viability     %             87.8
1  COC(=O)C(C)Oc1ccc(-c2nccc(-c3ccccn3)n2)cc1 (configuration not stated)     viability     %             95.7
2  O=C(CSc1nc2ccccc2c(=O)[nH]1)NCc1ccc(Cl)cc1     viability     %               83
3  CCOC(=O)COc1ccc(/C=C2\NC(=S)N(CC)C2=O)cc1     viability     %             94.5
4  COC(=O)CCc1nc2c(C#N)c(-c3ccc(Cl)cc3)ccn2n1     viability     %             99.2

Request: Which value of viability has been reported for CCc1ccc(/C=C2/C(=O)N(C)C(=S)N2CC(=O)OC)s1 in the records?
Result: 92

Request: Which value of viability has been reported for O=C(/C=C\c1cccs1)N1CCN(Cc2ccc3c(c2)OCO3)CC1 in the records?
Result: 87.7

Request: Which value of viability has been reported for COC(=O)C1CC(=O)N(c2ccc(OCc3ccccc3Cl)cc2)C1 (configuration not stated) in the records?
Result: 90.6

Request: Which value of viability has been reported for Cc1nc(SCC(=O)NC2CCCCC2)[nH]c(=O)c1C in the records?
Result: 88.8

Request: Which value of viability has been reported for COc1cc(NC(=O)C/C(C)=N/NC(=O)c2ccccn2)c(OC)cc1Cl in the records?
Result: 92.4

Request: Which value of viability has been reported for Cc1ccc(NC(=O)C2C3/C=C\CCCCC32)cc1C (configuration not stated) in the records?
Result: 87.6

Request: Which value of viability has been reported for O=C(CSc1nc2ccccc2c(=O)[nH]1)NC1CCCCC1 in the records?
Result: 81.8
